- Test system: HFF
- assay.overview: Cytotoxicity against proliferating HFF cells
- Type: functional
- condition.description: Homo sapiens
Quick reference for CC50 among some compounds
quantity: CC50 (µM)

given_smiles=C=CCOc1nc(N)nc2c1ncn2/C=C1/C[C@@H]1CO units_of_measure=µM result_comparator== reported_result=220
given_smiles=CCCSc1nc(N)nc2c1ncn2/C=C1/C[C@@H]1CO units_of_measure=µM result_comparator== reported_result=283
given_smiles=CCCCCOc1nc(N)nc2c1ncn2/C=C1/C[C@@H]1CO units_of_measure=µM result_comparator== reported_result=41.9
given_smiles=COc1nc(N)nc2c1ncn2/C=C1/C[C@@H]1CO units_of_measure=µM result_comparator== reported_result=15.8
given_smiles=C=CCNc1nc(N)nc2c1ncn2/C=C1/C[C@@H]1CO units_of_measure=µM result_comparator=> reported_result=368
given_smiles=Nc1nc(O)c2ncn(/C=C3/C[C@@H]3CO)c2n1 units_of_measure=µM result_comparator== reported_result=257
given_smiles=Nc1nc(NC2CC2)c2ncn(/C=C3/C[C@@H]3CO)c2n1 units_of_measure=µM result_comparator== reported_result=213
given_smiles=CCCOc1nc(N)nc2c1ncn2/C=C1/C[C@@H]1CO units_of_measure=µM result_comparator== reported_result=69.4
given_smiles=C#CCNc1nc(N)nc2c1ncn2/C=C1/C[C@@H]1CO units_of_measure=µM result_comparator== reported_result=306
given_smiles=CCCCCSc1nc(N)nc2c1ncn2/C=C1/C[C@@H]1CO units_of_measure=µM result_comparator== reported_result=215
given_smiles=Nc1nc(OCC2CC2)c2ncn(/C=C3/C[C@@H]3CO)c2n1 units_of_measure=µM result_comparator== reported_result=112
